Exercise: state measured viability at 28.5 h, 10 µM for each of the molecules provided.
# assay.comment: in vitro
# conditions: human, hela cells, % viability
# output: number + unit

I am curious: what viability at 28.5 h, 10 µM value has been reported for CN(Cc1ccccc1)C1(O)C(=O)Nc2ccc(Cl)cc21 (centres unmarked) ?
95.9%

What value of viability at 28.5 h, 10 µM has been recorded for this entry: O=c1[nH]c(=O)n(C2CC(O)C(CO)O2)cc1F (centres unmarked)
49.6%

Endpoint output: viability at 28.5 h, 10 µM of COc1ccc2c(Cl)c(C(=O)NCCc3ccc(S(N)(=O)=O)cc3)sc2c1 . Value?
104%

Reported viability at 28.5 h, 10 µM, molecule O=C(NC1CCc2ccccc21)N1CCN(CCc2ccccc2)CC1 (centres unmarked) : ____
96.1%

Item CCn1cc(CN(CCOC)C(=O)c2cc3c(Cl)cccc3[nH]2)cn1 has what recorded viability at 28.5 h, 10 µM?
91.5%

What does the data say about its viability at 28.5 h, 10 µM? Entry: O=S(=O)(NC1CCCCC1)c1ccc(Cl)cc1I
80.8%

Suppose we examine the molecule COc1ccc(OC(=O)c2cc(S(=O)(=O)N3CCCCCC3)ccc2Cl)cc1 ; what viability at 28.5 h, 10 µM value has been reported?
95.9%

Form field: reported viability at 28.5 h, 10 µM of Nc1ccccc1Sc1nc2ccccc2nc1C(F)(F)F
96.1%

What viability at 28.5 h, 10 µM value was documented for this molecule, CSc1nsc(SCC(=O)OC2CC3CCC2(C)C3(C)C)n1 (centres unmarked) ?
92.5%

What value of measured viability at 28.5 h, 10 µM is listed for CN(C)CCCO/N=C(\c1ccccc1)c1ccncc1 [CBK261464G] ?
95.3%

Give the measured viability at 28.5 h, 10 µM of COCCNC(=O)c1c(NC(=O)c2ccccc2C)sc2c1CCCC2 .
83.9%

Please give the measured viability at 28.5 h, 10 µM for this molecule: O=C(O)c1ccc(CSc2nc3ccccc3[nH]2)cc1
82%

Any idea what its viability at 28.5 h, 10 µM is? The molecule is CC1(C)CC(=O)C2=C(C1)NC(Nc1nc3ccccc3s1)=NC2c1cccnc1 (centres unmarked)
99.4%

Need viability at 28.5 h, 10 µM of CC(=O)c1sc(NC(=O)c2ccccc2Oc2ccccc2)nc1C , thanks.
90.9%

So what does the record say about viability at 28.5 h, 10 µM for CNC1(c2nnnn2CCOC(=O)Nc2ccc(Cl)cc2)CCCC1 ?
102%

Would you kindly share the measured viability at 28.5 h, 10 µM for O=C(c1cncnc1)N1CCC2(CCCNC2)C1 (centres unmarked) [CBK153237C] ?
89.7%

Query: viability at 28.5 h, 10 µM; subject: CC1(C)C(C(=O)O)C1C(=O)NCCc1ccc(O)cc1 (centres unmarked)
104%

Value lookup for viability at 28.5 h, 10 µM; key = O=C(NCCO)c1cccc(-c2cnc3[nH]c(=O)n(Cc4ccccn4)c3n2)c1
96.5%

Could you share which viability at 28.5 h, 10 µM value was measured for CC(=O)c1cccc(NC(=O)Nc2cccc(S(=O)(=O)N3CCOCC3)c2)c1 ?
89.9%

Can you look up the measured viability at 28.5 h, 10 µM of COc1ccc(CCCC(=O)Nc2c(C)nn(C)c2N2CCNCC2)cc1OC [CBK050252T] for me?
93%

* * *

# assay.comment: in vitro
# conditions: human, hela cells, % viability
property: viability at 28.5 h, 10 µM (%)
Lab book: enter the figure in %, no units written.

Which viability at 28.5 h, 10 µM is reported for this molecule? Cc1ccc2c(c1)cc(C(=O)N1CCOC(C(=O)N3CCc4ccccc4C3)C1)n2C (stereo not shown) [CBK286035]
93.8

Sample Cc1ccccc1OCc1nnc(SCc2nnc(-c3ccccc3)o2)n1C [CBK267406] — what was its viability at 28.5 h, 10 µM?
90.1

State the recorded viability at 28.5 h, 10 µM for this entry: Cc1ccc(S(=O)(=O)Nc2ccccc2C(=O)O)cc1[N+](=O)[O-] [CBK042374]
84.5

For the molecule shown here, Cc1cccc(OCCNC(=O)CN2CCCC2Cn2cncn2)c1 (stereo not shown) [CBK305345] , give the reported viability at 28.5 h, 10 µM.
102

# lookup: viability at 28.5 h, 10 µM of CONc1nc(/N=C/N(C)C)nc2c1ncn2C1CC(O)C(CO)O1 (stereo not shown) [CBK201335]
92.7

Given the molecule CC(=O)C1=C(c2ccccc2)NC(=S)NC1c1cc(Cl)ccc1OCC(=O)O (stereo not shown) [CBK267300] , what is its reported viability at 28.5 h, 10 µM?
99.4

I have this molecule here, O=C(Cn1ccc2ccnc(-c3cccs3)c21)N1CCNCC1 [CBK284733] , and I need its recorded viability at 28.5 h, 10 µM.
90.9

What value of measured viability at 28.5 h, 10 µM is listed for CC(=O)C1=C(C)NC(SCC(=O)c2ccc(F)cc2)=C(C#N)C1c1sccc1C (stereo not shown) [CBK262624] ?
95.6

Given CCC(=O)N(C)[C@H]1CC[C@]2(CC1)CNC(=O)c1ccccc1O2 [CBK281683] , state its recorded viability at 28.5 h, 10 µM.
87.5

Quick one: viability at 28.5 h, 10 µM of CC(=O)N1CCc2c([nH]c3cc(F)ccc23)C12CCN(CCC#N)CC2 [CBK039692] ?
95.7

viability at 28.5 h, 10 µM lookup needed for CN(CC(=O)O/N=C(\N)c1ccccn1)S(=O)(=O)c1ccc(Br)cc1 [CBK268617] , thanks.
96.9

State the recorded viability at 28.5 h, 10 µM for this entry: COc1ccccc1CC(=O)Nc1ncccc1OCCCC#N [CBK304952]
91

# input molecule: CCC(CO)Nc1cncc(-c2ccccc2CO)n1 (stereo not shown) [CBK065775] ; wanted: its viability at 28.5 h, 10 µM
103

What viability at 28.5 h, 10 µM value was documented for this molecule, CC(C)(C)c1cc(CN2CCCCC2)c(C(=O)O)o1 [CBK266556C] ?
97.8

Look up viability at 28.5 h, 10 µM: COc1cc(C(=O)N2CCC3(CC2)CC(=O)c2cc(NC(C)=O)ccc2O3)nc2c(OC)cccc12 [CBK170664]
122

Please give the measured viability at 28.5 h, 10 µM for this molecule: Cc1cc(C(=O)NCCCn2ccnc2)no1 [CBK268145]
103

Can you look up the measured viability at 28.5 h, 10 µM of O=C(O)COc1ccccc1/C=N/n1c(S)nnc1-c1ccncc1 [CBK265253] for me?
111

May I ask what viability at 28.5 h, 10 µM has been recorded for Cc1nc2c(-c3ccccc3)cnn2c(N2CCCC2)c1C [CBK287799] ?
89

# viability at 28.5 h, 10 µM lookup, item COc1ccc2c(c1)C1(CC(=O)N(CC(=O)N(C)OC)C1=O)C(=O)N2CCCCOc1ccccc1 (stereo not shown) [CBK076032]
92.6

* * *

# assay.comment: in vitro
# conditions: human, hela cells, % viability
property: viability at 28.5 h, 10 µM (%)
Give your result in % as a bare value.

So what does the record say about viability at 28.5 h, 10 µM for CCC(=O)Nc1nc(-c2ccc(C(=O)OC)cc2)nc2c1c(=O)oc1ccccc12 ?
110

Param item = CN(C)Cc1ccccc1-n1cc(-c2cccnc2)nn1 ; retrieve measured viability at 28.5 h, 10 µM.
92.5

Reported viability at 28.5 h, 10 µM, compound COc1ccc(-c2cnc3[nH]c(=O)n([C@H](CO)C(C)C)c3n2)c(OC)c1OC : ____
99.1

Entry Cc1c(Br)c(C(F)(F)F)nn1CC(=O)Nc1ccc(Oc2cc([N+](=O)[O-])cc([N+](=O)[O-])c2)cc1 : reported viability at 28.5 h, 10 µM = ?
97.5

Which value of viability at 28.5 h, 10 µM has been reported for Cc1ccc(S(=O)(=O)N2CCN(CCC(=O)O)CC2)cc1 in the records?
97.1

Which viability at 28.5 h, 10 µM reading was recorded for the compound COC(=O)c1ccccc1NC(=O)NCc1cc(C)n(C)n1 [CBK266887C] ?
109

What measured viability at 28.5 h, 10 µM goes with COc1ccc(-c2[nH]c3ncccc3c2CN2CCSCC2)cc1 ?
91.9

Give its viability at 28.5 h, 10 µM value. Item: COc1ccc(Nc2nc(-c3ccc(F)cc3)cs2)c(OC)c1
87.5

# input compound: CN(CCCN1CCCCC1)C(=O)C1Cc2cc(Cl)ccc2O1 (stereo not drawn) ; wanted: its viability at 28.5 h, 10 µM
104

* * *

# assay.comment: in vitro
# conditions: human, hela cells, % viability
property: viability at 28.5 h, 10 µM (%)
Please state the figure in %; there is no need to write the unit.

State the recorded viability at 28.5 h, 10 µM for this entry: CCc1cc(C(=O)N2CCC(Oc3ccccc3F)CC2)n(C)n1
109

Given Cc1ccc(NC(=O)CC2Nc3ccccc3OC2=O)cc1C (centres unmarked) , state its recorded viability at 28.5 h, 10 µM.
81.5

I would be grateful if you could share the reported viability at 28.5 h, 10 µM for CCCn1ccc(CNCC(c2ccnn2C)C(C)C)c1 (centres unmarked) .
87

What measured viability at 28.5 h, 10 µM goes with O=C(CSc1nnc(Cc2cccs2)n1-c1ccccc1)c1c[nH]c2ccccc12 ?
88

Could you share which viability at 28.5 h, 10 µM value was measured for CC(=O)c1ccc(-c2nccnc2NCc2cccc([N+](=O)[O-])c2)s1 ?
106

For CCOc1cccc(-c2cn3ccnc3c(N3CCN(CCO)CC3)n2)c1 , what is its reported viability at 28.5 h, 10 µM?
95.9

# query: viability at 28.5 h, 10 µM of entry N#CCCCN1CCN(c2nccnc2OCCN2C(=O)CCC2=O)CC1
102

Given the compound CN(CC(=O)Nc1sc2c(c1C#N)CCCCC2)Cc1cnn(C)c1 , what is its reported viability at 28.5 h, 10 µM?
94.3

Param item = O=C1CCC(=O)N1CCOc1nccnc1N1CCN(CC2CC2)CC1 ; retrieve measured viability at 28.5 h, 10 µM.
93.9

Look up viability at 28.5 h, 10 µM for this compound: Cc1ccc(NC(=O)N2CCCC(CO)C2)cc1 (centres unmarked)
77.9

Which viability at 28.5 h, 10 µM value belongs to O=C(NC[C@H]1CC[C@H](c2nnc(-c3ccsc3)o2)CC1)C1CCC1 ?
87.1

Give its viability at 28.5 h, 10 µM value. Item: COc1cccc(C2=NO[C@@](CC(=O)O)(C(=O)NCc3ccccc3)C2)c1OC
83.4

Item O=C1NC2(CCc3ccccc31)CCN(C(=O)CCn1cccn1)C2 (centres unmarked) has what recorded viability at 28.5 h, 10 µM?
91.2

Look up viability at 28.5 h, 10 µM: O=C(NCc1cccnc1-n1cccn1)c1c[nH]c(C(=O)N2CCCC2)c1
99.1

What value of viability at 28.5 h, 10 µM has been recorded for this entry: C(=C\c1ccccc1)/CN1CCC(Cc2ccccc2)CC1
119

I would be grateful if you could share the reported viability at 28.5 h, 10 µM for Cc1nc([N+](=O)[O-])cn1CCC(=O)Nc1ccccc1Oc1ccccc1Cl .
101

Dear colleague, I am looking for the recorded viability at 28.5 h, 10 µM of the following compound: N#Cc1nccnc1N1CCN(Cc2ccc3c(c2)OCO3)CC1
83.3

# viability at 28.5 h, 10 µM lookup, item Cc1ccc(C(=O)Nc2ncn(CC(=O)N3CCCCCC3)n2)cc1
106

# query: viability at 28.5 h, 10 µM of entry CCCCc1nccc(-c2ccc(OCC)c(C(=O)O)c2)n1
82.8

What value of viability at 28.5 h, 10 µM has been recorded for this entry: COc1c(C(=O)O)cc(C)c2c1CCC2C (centres unmarked)
101
